# System: K4 kissing-loop RNA reporter
# experimentSummary: apparent KD of K4 kissing-loop reporter; higher = weaker reporter binding
# measurementConditions: Eterna round: R107; input ligand: FMN 200 uM

{"inputSequence": "CAUACGCAUGGAGGAUAUGAGAUUUCUCAUAUUAUUGCUUAUUCUCAGUGAUGUUGGGAUUUAAGCUCAGAAGGCCAUGUGUAUG [Ex FMN B 10]", "testedTarget": "K4 kissing-loop RNA reporter", "apparent KD of K4 kissing-loop reporter": "187 nM"}
{"inputSequence": "GAGAUAGCGACGGCCGCCACUAGUGAUGUUAGUGCUGGUAGAUAGAUACUGGAACAGAAAUGACGUAGGACCGGGUCAGAUAGAG [#01 K4 Tryptophan B Exclusion]", "testedTarget": "K4 kissing-loop RNA reporter", "apparent KD of K4 kissing-loop reporter": "264 nM"}
{"inputSequence": "AUAGAAAAGUGGCACCCUCACUAAAACAGUCGAGGACCGGUACGGCCGCCACUCGCGCGCUUUAGUGAUGUUAAAGCUAUGCAAA", "testedTarget": "K4 kissing-loop RNA reporter", "apparent KD of K4 kissing-loop reporter": "407 nM"}

* * *

# Test system: MS2 coat protein
# experimentSummary: apparent KD of MS2 coat protein; designed switch direction (-1 OFF switch, 1 ON switch): -1; higher = weaker reporter binding
# measurementConditions: input ligand: FMN 200 uM
Below is a list of entries, each paired with its recorded apparent KD of MS2 coat protein value.

{"inputSequence": "GCCGAAAAUGUGAGGAUAUACCUAUGGAAACAUAGGUAGAAGGCACAUGAGGAUCACCCAUGUUCCUCAUCGGC [Mat - Exclusion 4 - Eli Mod - D17] (Eterna round: R97, puzzle: Brourd's mod of Exclusion 4)", "apparent KD of MS2 coat protein [nM]": 729}
{"inputSequence": "GCUAUGGGAGGAUAUACAUGAGGAUCACCCAUGUGUAGAGCAUACGCGCGCAUUAACAGUAGAAGGCCCUGCGU [Eternabot (L1) Solution 23] (Eterna round: R97, puzzle: Exclusion 3)", "apparent KD of MS2 coat protein [nM]": 50.7}
{"inputSequence": "UUAAAUCAUGUAGGAUAUGCGUGGCAAAGCUAUGCAGAAGGACAUGAGGAUCACCCAUGUUCUAGCGUCUGAGAACAGAUGCUA [Mat - Exclusion NG 1 - Mod of JL - D78] (Eterna round: R96, puzzle: Exclusion NG 1)", "apparent KD of MS2 coat protein [nM]": 566}
{"inputSequence": "GCUGGACAAGGAUAUACAUGAGGAUCACCCAUGUGAUCAGCAGUCCUCGGACUGCAAUGUAGAAGGUGUCCAGC [E3/1-C2] (Eterna round: R97, puzzle: Exclusion 3)", "apparent KD of MS2 coat protein [nM]": 38.9}

* * *

Below is a list of entries, each paired with its recorded apparent KD of MS2 coat protein value.
# Tested on: MS2 coat protein
# experimentSummary: apparent KD of MS2 coat protein; designed switch direction (-1 OFF switch, 1 ON switch): 1; higher = weaker reporter binding
# measurementConditions: input ligand: FMN 200 uM

{"inputSequence": "UAUCCAUAGAUAGGAUAUCAGUAUACAUGAGGAUCACCCAUGUUCUAUUUGGUUUUAAUUUAUUCUGAGAAGGAUCUUGAUGAA [SameState NG2 #1] (Eterna round: R96, puzzle: Same State NG 2)", "unitSymbol": "µM", "apparent KD of MS2 coat protein": 0.0138}
{"inputSequence": "AUAAAACAUGAGGAUCACCCAUGUAGACACGAUGGAGGAUAUACUAGAUCGAAAGAUCUAGUAGAAGGCCGACGUA [Mat - Same State 1 - JL mod - D95] (Eterna round: R96, puzzle: Same State 1)", "unitSymbol": "µM", "apparent KD of MS2 coat protein": 0.0218}

* * *

# Test system: K4 kissing-loop RNA reporter;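 further: bound reporter read as fluorescence of individual clusters on recovered sequencing chips by microscopy, with normalized cluster intensities fitted with a binding model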
# experimentSummary: apparent KD of K4 kissing-loop reporter; higher = weaker reporter binding
# measurementConditions: Eterna round: R107; input ligand: tryptophan 2.4 mM

{"inputSequence": "CGCAGUGAUGUUGCGAGUAACUACAGGGAAGGAGCGUGCUAAAGCACAGGUAGGUCGCCCAUGCAGUGAUGUUGUGUAAAAGGGU [Excluson Arginine A GF 13]", "apparent KD of K4 kissing-loop reporter": "0.0908 µM"}
{"inputSequence": "AGCUCACACGGAAGGAGCGGAUAGAACUGACAGUUGGGCUCAAGUGAUGUUUGGGCUUGAAUCCAGGUAGGUCGCCGUGUGAGCU [Arg B SS t12]", "apparent KD of K4 kissing-loop reporter": "0.123 µM"}
{"inputSequence": "UGACUGGACUGAAGGAGCGUUGAAGGAGCGUAGGCAGUGAUGUUGCCUACAGGUAGGUCGCAGCAGGUAGGUCGCAGUCUAGUCU [ArgBS 27 #DoubleAptamer #SwitchBubble]", "apparent KD of K4 kissing-loop reporter": "0.107 µM"}

* * *

Below is a list of entries, each paired with its recorded apparent KD of MS2 coat protein value.
# Test system: MS2 coat protein
# experimentSummary: apparent KD of MS2 coat protein; higher = weaker reporter binding
# measurementConditions: Eterna round: R107; input ligand: tryptophan 2.4 mM
readout: apparent KD of MS2 coat protein

{"inputSequence": "CAUGUUAGGGCGGCCGCCACUGUGGCUACGGUACAUGAGGAUCACCCAUGUUUGUGGUUGAUCUACAGGACCGGGCCCUGACACG [Erarusge]", "recordedResult": "0.209 µM"}
{"inputSequence": "CUCUGAGUCCGAAAGGACUCAGAGGCGGAUACCAGCGAGGUCCAUCGCCCUUGGCAGCCGAACAUGAGGAUCACCCAUGUCGGUA [#1 Same State - Theophylline A Attempt #28 (HarryS)]", "recordedResult": "0.0112 µM"}
{"inputSequence": "ACAUGAGGAUCACCCAUGUCAAGGCACGAUACCAGCUGAUCCCGUGGCCCUUGGCAGCGUCACGUUUGGUCCCGCGGAUGACACG [zczmullin]", "recordedResult": "0.0869 µM"}
{"inputSequence": "UUGUUGUUUGGAAGGAGCGUGGAUGAGUGAGAACAUGAGGAUCACCCAUGUUGUAUGAUACCGCAGGUAGGUCGCCGGGUGGUGG [11.aB]", "recordedResult": "0.0175 µM"}
{"inputSequence": "UUUGAUAGGACAGAUACCAGCGUGUUAUAGAACAUGAGGAUCACCCAUGUAGUGAUCAAGCGCCCUUGGCAGCUGGUUUGUUAGG [7.K]", "recordedResult": "0.196 µM"}
{"inputSequence": "AAACGUUGCUGCGAUACCAGACAUGAGGAUCACCCAUGUACCAAGAAAACGUACAUAAAUGUCCCUUGGCAGCGCAGCAACGAAA [MAT - Exclusion Theophlline B - Mod of Eli - D28]", "recordedResult": "0.635 µM"}
{"inputSequence": "GCUGUACCAUGAAGGAGCGUCACGGAGUGCGAAUACACAUGAGGAUCACCCAUGUUUUUAUGGCAGGUAGGUCGCAUGGUACAGC [#02 Same State - Arginine B]", "recordedResult": "0.0229 µM"}
{"inputSequence": "UGGUUUCGGUCAAUCACCGGUCCCUGGGAAGGAGCGGACUCAUGUCCAGGUAGGUCGCCCAGACAUGAGGAUCACCCAUGUGACA [Tiusdiin]", "recordedResult": "0.0241 µM"}
{"inputSequence": "GGAGCUACGUCGGCCGCCACUAGCGGGUAUUGCGUGUACAUGAGGAUCACCCAUGUAAUAUGGCCUAGGACCGGGACGUAGCUCC [Bison]", "recordedResult": "0.0165 µM"}
{"inputSequence": "GGCACACAUGAGGAUCACCCAUGUGGCGAUACCAGUUGAUGGUAAAACCCUUGGCAGCGCCAGUCACAUGCAGAUAGUUACUGAA [theeternabot_sameState_MS2_Theo_A_32]", "recordedResult": "0.0158 µM"}
{"inputSequence": "AGACGAGAAGAGGAUUACCCAUGUACAGAAGGAGCGUCGUUGACGACAGGUAGGUCGCUGAGAACAUGAGGAUCACCCAUGUUGA [Arg A Ex t1]", "recordedResult": "0.036 µM"}
{"inputSequence": "ACGACGCAUAGUGAUACCAGCACAACAUGAGGAUCACCCAUGUCACAUAUGUUGUAAUAAUGCCCUUGGCAGCACUAUGCGUCAG [SSTheo B #2]", "recordedResult": "0.0508 µM"}
{"inputSequence": "AUGUCGUUGAAUAUAGCGGCUUGGAGUGAUACCAGAAUGAUCCAAUUCCCUUGGCAGCAUUACAUGAGGAUCACCCAUGUUCCAG [SSTheo A #23]", "recordedResult": "0.0486 µM"}
{"inputSequence": "ACAUGAAGAACAGCGGUGGGCGCGCUCGAUACCAGUAUUUUAAAUUACCCUUGGCAGCGACAUGAGGAUCACCCAUGUGAGAUGA [XTheo A #5]", "recordedResult": "0.018 µM"}
{"inputSequence": "UCGUGUAUAACGGAUACCAGUGAGAAGGAUACAUGAGGAUCACCCAUGUGAGUUGAUGUACACCCUUGGCAGCUGUAUAUAUCUA [llpmullin]", "recordedResult": "0.0733 µM"}
{"inputSequence": "UAUCCACAUGAGGAUCACCCAUGUAGGGAAGGAGCGGUGAUUUCACCAGGUAGGUCGCCUUGCUCAGGGUUGCCGGUGGAAUCGU [Exclusion - Arginine A (Freestyle 34)]", "recordedResult": "0.00973 µM"}
{"inputSequence": "GGAUAGGACACGGCCGCCACUAGCUAGGAUACUAGCAACAUUUCCUCACUUGAGGAUCACCCAGGUAGGACCGGGUGUCCUAUCG", "recordedResult": "0.62 µM"}
{"inputSequence": "GAGGACAUGAGGAUCACCCAUGUAAAUGAUACCAGUUGAGAGAGAGGCCCUUGGCAGCGUAAACAUGACAGCGAGCGAGAGUGCG [ss-theoA-0]", "recordedResult": "0.0146 µM"}
{"inputSequence": "UUAUAUAUGCGAAGGAGCGGGAAAUAUAUAUAUAUAAUCCUAACAUGAGGAUCACCCAUGUCCCAGGUAGGUCGCGCAUAUAUAG [12.C]", "recordedResult": "0.0534 µM"}
{"inputSequence": "AGUAGACACGCGGCCGCCACUUGAGGAUCACCCAGGUGGUGUGUACUUGAAAACAAGUGCACAUCAAGGACCGGGCGUGUCUACA [Omei Tryp B SS D v2]", "recordedResult": "0.0273 µM"}
{"inputSequence": "UCGGGCAGAGCGGCCGCCACUGUAUGGCAUGCGGAUGAAGGAACAUGAGGAUCACCCAUGUAGAUUAGGACCGGGCUUGCGGAGA [p''pmullin]", "recordedResult": "0.02 µM"}
{"inputSequence": "ACAUGAGGAUCACCCAUGUAAAUAACGGAAGGAGCGUGCAAAAGCACAGGUAGGUCGCCGAUAUAAAUAUUGGGUAAUAUAUUAU [ExyArgA#1]", "recordedResult": "0.028 µM"}
{"inputSequence": "ACCGCAUCCGUAUAGGAUGCGGCCCAUGAAGGAGCGUGGGAAACCACAGGUAGGUCGCAUGGACAUGAGGAUCACCCAUGUUAUU [Inception]", "recordedResult": "0.0483 µM"}
{"inputSequence": "UUAAUGGAGCUUUAAUUUACGAUUUCUGAUACCAGUGUUUCAUUUCACCCUUGGCAGCAGUGACAUGAGGAUCACCCAUGUAAUA [JR_Nu_SSTheophyA_Sub022]", "recordedResult": "0.0264 µM"}
